Assay: Influencing factor stability study on crystal forms (light, high temperature, high humidity, 30 days)
Format: physicochemical
Conditions: 40 °C, 14 days
Listing of entries alongside the reported Purity (%).
Write the value in % as a bare number.

Use these answered entries as a reference point.
1. C=CC(=O)N1CCN2C(=O)c3cc(F)c(-c4ccc(F)c5sc(N)c(C#N)c45)c4c(Cl)nn(c34)CC[C@H]2C1 [crystal form L] : 99.0
2. C=CC(=O)N1CCN2C(=O)c3cc(F)c(-c4ccc(F)c5sc(N)c(C#N)c45)c4c(Cl)nn(c34)CC[C@H]2C1 [crystal form M] : 99.1
3. C=CC(=O)N1CCN2C(=O)c3cc(F)c(-c4ccc(F)c5sc(N)c(C#N)c45)c4c(Cl)nn(c34)CC[C@H]2C1 [crystal form H] : 98.1

Notebook: C=CC(=O)N1CCN2C(=O)c3cc(F)c(-c4ccc(F)c5sc(N)c(C#N)c45)c4c(Cl)nn(c34)CC[C@H]2C1 [crystal form G] , Purity (%) read as 97.8

* * *

Assay: Influencing factor stability study on crystal forms (light, high temperature, high humidity, 30 days)
Type: physicochemical
Conditions: 92.5% RH, 14 days
Listing of entries alongside the reported Purity (%).
Write the value in % as a bare number.

1. C=CC(=O)N1CCN2C(=O)c3cc(F)c(-c4ccc(F)c5sc(N)c(C#N)c45)c4c(Cl)nn(c34)CC[C@H]2C1 [crystal form G] : 98.5
2. C=CC(=O)N1CCN2C(=O)c3cc(F)c(-c4ccc(F)c5sc(N)c(C#N)c45)c4c(Cl)nn(c34)CC[C@H]2C1 [crystal form M] : 99.2

Notebook: C=CC(=O)N1CCN2C(=O)c3cc(F)c(-c4ccc(F)c5sc(N)c(C#N)c45)c4c(Cl)nn(c34)CC[C@H]2C1 [crystal form H] , Purity (%) read as 98.3

Notebook: C=CC(=O)N1CCN2C(=O)c3cc(F)c(-c4ccc(F)c5sc(N)c(C#N)c45)c4c(Cl)nn(c34)CC[C@H]2C1 [crystal form L] , Purity (%) read as 99.1

* * *

Experiment: Influencing factor stability study on crystal forms (light, high temperature, high humidity, 30 days)
Type: physicochemical
Details: 60 °C, 30 days
quantityMeasured: Color and state

1. C=CC(=O)N1CCN2C(=O)c3cc(F)c(-c4ccc(F)c5sc(N)c(C#N)c45)c4c(Cl)nn(c34)CC[C@H]2C1 [crystal form M] : Off-white solid
2. C=CC(=O)N1CCN2C(=O)c3cc(F)c(-c4ccc(F)c5sc(N)c(C#N)c45)c4c(Cl)nn(c34)CC[C@H]2C1 [crystal form N] : Off-white solid
3. C=CC(=O)N1CCN2C(=O)c3cc(F)c(-c4ccc(F)c5sc(N)c(C#N)c45)c4c(Cl)nn(c34)CC[C@H]2C1 [crystal form C] : Off-white solid

* * *

Test: Dynamic vapor sorption (DVS) hygroscopicity testing
Type: physicochemical
Conditions: humidity changing from 0% to 95% RH
quantityMeasured: desorption process of the sample versus its adsorption process

1) C=CC(=O)N1CCN2C(=O)c3cc(F)c(-c4ccc(F)c5sc(N)c(C#N)c45)c4c(Cl)nn(c34)CC[C@H]2C1 [crystal form G] : substantially overlapped
2) C=CC(=O)N1CCN2C(=O)c3cc(F)c(-c4ccc(F)c5sc(N)c(C#N)c45)c4c(Cl)nn(c34)CC[C@H]2C1 [crystal form N] : substantially overlapped
3) C=CC(=O)N1CCN2C(=O)c3cc(F)c(-c4ccc(F)c5sc(N)c(C#N)c45)c4c(Cl)nn(c34)CC[C@H]2C1 [crystal form M] : substantially overlapped

* * *

Test: Influencing factor stability study on crystal forms (light, high temperature, high humidity, 30 days)
Type: physicochemical
Conditions: 75% RH, 30 days
quantityMeasured: Color and state

Use these answered entries as a reference point.
1) C=CC(=O)N1CCN2C(=O)c3cc(F)c(-c4ccc(F)c5sc(N)c(C#N)c45)c4c(Cl)nn(c34)CC[C@H]2C1 [crystal form F] : Off-white solid
2) C=CC(=O)N1CCN2C(=O)c3cc(F)c(-c4ccc(F)c5sc(N)c(C#N)c45)c4c(Cl)nn(c34)CC[C@H]2C1 [crystal form M] : Off-white solid
3) C=CC(=O)N1CCN2C(=O)c3cc(F)c(-c4ccc(F)c5sc(N)c(C#N)c45)c4c(Cl)nn(c34)CC[C@H]2C1 [crystal form H] : Off-white solid
4) C=CC(=O)N1CCN2C(=O)c3cc(F)c(-c4ccc(F)c5sc(N)c(C#N)c45)c4c(Cl)nn(c34)CC[C@H]2C1 [crystal form N] : Off-white solid

Notebook: C=CC(=O)N1CCN2C(=O)c3cc(F)c(-c4ccc(F)c5sc(N)c(C#N)c45)c4c(Cl)nn(c34)CC[C@H]2C1 [crystal form C] , Color and state read as Off-white solid

Notebook: C=CC(=O)N1CCN2C(=O)c3cc(F)c(-c4ccc(F)c5sc(N)c(C#N)c45)c4c(Cl)nn(c34)CC[C@H]2C1 [crystal form G] , Color and state read as Off-white solid

Notebook: C=CC(=O)N1CCN2C(=O)c3cc(F)c(-c4ccc(F)c5sc(N)c(C#N)c45)c4c(Cl)nn(c34)CC[C@H]2C1 [crystal form L] , Color and state read as Off-white solid

* * *

Assay: Influencing factor stability study on crystal forms (light, high temperature, high humidity, 30 days)
Format: physicochemical
Details: 75% RH, 30 days
Listing of entries alongside the reported Purity (%).
Write the value in % as a bare number.

Use these answered entries as a reference point.
1. C=CC(=O)N1CCN2C(=O)c3cc(F)c(-c4ccc(F)c5sc(N)c(C#N)c45)c4c(Cl)nn(c34)CC[C@H]2C1 [crystal form C] : 98.1
2. C=CC(=O)N1CCN2C(=O)c3cc(F)c(-c4ccc(F)c5sc(N)c(C#N)c45)c4c(Cl)nn(c34)CC[C@H]2C1 [crystal form G] : 98.5
3. C=CC(=O)N1CCN2C(=O)c3cc(F)c(-c4ccc(F)c5sc(N)c(C#N)c45)c4c(Cl)nn(c34)CC[C@H]2C1 [crystal form F] : 97.9
4. C=CC(=O)N1CCN2C(=O)c3cc(F)c(-c4ccc(F)c5sc(N)c(C#N)c45)c4c(Cl)nn(c34)CC[C@H]2C1 [crystal form L] : 99.1

Notebook: C=CC(=O)N1CCN2C(=O)c3cc(F)c(-c4ccc(F)c5sc(N)c(C#N)c45)c4c(Cl)nn(c34)CC[C@H]2C1 [crystal form M] , Purity (%) read as 99.2

Notebook: C=CC(=O)N1CCN2C(=O)c3cc(F)c(-c4ccc(F)c5sc(N)c(C#N)c45)c4c(Cl)nn(c34)CC[C@H]2C1 [crystal form H] , Purity (%) read as 98.4

Notebook: C=CC(=O)N1CCN2C(=O)c3cc(F)c(-c4ccc(F)c5sc(N)c(C#N)c45)c4c(Cl)nn(c34)CC[C@H]2C1 [crystal form N] , Purity (%) read as 99.1

* * *

Assay: Influencing factor stability study on crystal forms (light, high temperature, high humidity, 30 days)
Format: physicochemical
Conditions: 60 °C, 7 days
quantityMeasured: Purity (%)
Write the value in % as a bare number.

Use these answered entries as a reference point.
1) C=CC(=O)N1CCN2C(=O)c3cc(F)c(-c4ccc(F)c5sc(N)c(C#N)c45)c4c(Cl)nn(c34)CC[C@H]2C1 [crystal form L] : 99.1
2) C=CC(=O)N1CCN2C(=O)c3cc(F)c(-c4ccc(F)c5sc(N)c(C#N)c45)c4c(Cl)nn(c34)CC[C@H]2C1 [crystal form H] : 98.3
3) C=CC(=O)N1CCN2C(=O)c3cc(F)c(-c4ccc(F)c5sc(N)c(C#N)c45)c4c(Cl)nn(c34)CC[C@H]2C1 [crystal form M] : 99.1

Notebook: C=CC(=O)N1CCN2C(=O)c3cc(F)c(-c4ccc(F)c5sc(N)c(C#N)c45)c4c(Cl)nn(c34)CC[C@H]2C1 [crystal form G] , Purity (%) read as 98.3

* * *

Assay: Influencing factor stability study on crystal forms (light, high temperature, high humidity, 30 days)
Assay type: physicochemical
Conditions: 92.5% RH, 30 days
quantityMeasured: Color and state

1. C=CC(=O)N1CCN2C(=O)c3cc(F)c(-c4ccc(F)c5sc(N)c(C#N)c45)c4c(Cl)nn(c34)CC[C@H]2C1 [crystal form H] : Off-white solid
2. C=CC(=O)N1CCN2C(=O)c3cc(F)c(-c4ccc(F)c5sc(N)c(C#N)c45)c4c(Cl)nn(c34)CC[C@H]2C1 [crystal form G] : Off-white solid
3. C=CC(=O)N1CCN2C(=O)c3cc(F)c(-c4ccc(F)c5sc(N)c(C#N)c45)c4c(Cl)nn(c34)CC[C@H]2C1 [crystal form F] : Off-white solid

* * *

Assay: Influencing factor stability study on crystal forms (light, high temperature, high humidity, 30 days)
Format: physicochemical
Settings: Light exposure (4500 Lux), 14 days
quantityMeasured: Purity (%)
Write the value in % as a bare number.

Use these answered entries as a reference point.
1. C=CC(=O)N1CCN2C(=O)c3cc(F)c(-c4ccc(F)c5sc(N)c(C#N)c45)c4c(Cl)nn(c34)CC[C@H]2C1 [crystal form G] : 98.4
2. C=CC(=O)N1CCN2C(=O)c3cc(F)c(-c4ccc(F)c5sc(N)c(C#N)c45)c4c(Cl)nn(c34)CC[C@H]2C1 [crystal form H] : 96.8
3. C=CC(=O)N1CCN2C(=O)c3cc(F)c(-c4ccc(F)c5sc(N)c(C#N)c45)c4c(Cl)nn(c34)CC[C@H]2C1 [crystal form M] : 99.2

Now for a further molecule.
Notebook: C=CC(=O)N1CCN2C(=O)c3cc(F)c(-c4ccc(F)c5sc(N)c(C#N)c45)c4c(Cl)nn(c34)CC[C@H]2C1 [crystal form L] , Purity (%) read as 98.2
